From: paper PMC9854762

# Tested on: P. aeruginosa DH-5698
# Method Summary: Broth microdilution MIC/MBC
# Type: cell-based, Pseudomonus aeruginosa
# Test Conditions: Pseudomonas aeruginosa, DH5698, 24 h, read-out: MIC (Mean ± SEM)
Each item that follows carries a reported MIC.
Measured Parameter: MIC (µg/mL)

Compound: CCOC(=O)c1ccc(N=Nc2c(N)nn3c(-c4ccco4)cc(-c4ccccc4)nc23)cc1
Unit Of Measurement: µg/mL
Val: 4
//
Compound: CCOC(=O)c1ccc(N=Nc2c(N=Cc3ccc(OC)cc3)n[nH]c2N)cc1
Unit Of Measurement: µg/mL
Val: 2
//
Compound: CCOC(=O)c1ccc(N=Nc2c(N)nn3c(N)c(C#N)c(-c4ccc(N(C)C)cc4)nc23)cc1
Unit Of Measurement: µg/mL
Val: 0.375
//
Compound: CCOC(=O)c1ccc(N=Nc2c(N=Cc3ccc(N(C)C)cc3)n[nH]c2N)cc1
Unit Of Measurement: µg/mL
Val: 0.5
//
Compound: CCOC(=O)c1ccc(N=Nc2c(N)nn3c(N)c(C#N)c(-c4ccc(OC)cc4)nc23)cc1
Unit Of Measurement: µg/mL
Val: 1.5
//
Compound: CCOC(=O)c1ccc(N=Nc2c(N)nn3c(C)cc(C)nc23)cc1
Unit Of Measurement: µg/mL
Val: 0.375
//
Compound: CCOC(=O)c1ccc(N=Nc2c(N)nn3c(O)c(C#N)c(-c4ccc(Cl)cc4)nc23)cc1 [Compound 10b]
Unit Of Measurement: µg/mL
Val: 1.5
//
Compound: CCOC(=O)c1ccc(N=Nc2c(N)nn3c(O)c(C#N)c(-c4ccc(N(C)C)cc4)nc23)cc1 [Compound 10a]
Unit Of Measurement: µg/mL
Val: 0.187
